B1: Chromodomain-helicase-DNA-binding protein 3, residues 374 to 426; numbered along this chain, Q12873 (parent)
chain: YETDHQDYCEVCQQGGEIILCDTCPRAYHLVCLDPELDRAPEGKWSCPHCEKE

Variants of: B1
TEST: abundance fitness (aPCA) (normalised: wild type 0, dead -1); higher = more abundant; growth selection in yeast, the domain comes from the species named
MEASUREMENT_CONTEXT: Homo sapiens
PROPERTY_MEASURED: abundance fitness
The answer should be a number; do not append a unit.

Use the examples below as a reference point.
MUTATION_LIST	abundance fitness
C24H	-0.907
E2H	0.126
V31A	0.158
V11K	0.258
D7F	-0.37
P25K	-0.385
E10Y	0.158
C21W	-0.831

Exercise: What abundance fitness value was documented for this variant, E17A ?
Key: -0.081

Exercise: What abundance fitness value was documented for this variant, C21E ?
Key: -1.15

Exercise: What abundance fitness value was documented for this variant, L30C ?
Key: 0.072

Exercise: What abundance fitness value was documented for this variant, P35C ?
Key: -0.117
